Reported Max % inhibition by item:
target: UniProtKB Q8NBP7; assay: PCSK9 ligand binding TR-FRET assay (interference with binding of human PCSK9 to human LDLR); details: PCSK9 FRET assay, efficacy (Amax); 100% = 1 uM unlabeled human PCSK9, 0% = DMSO
Provide only the numeric value, understood in %.

- Molecule: "COC[C@@H]1NC(=O)[C@H](CCCCN(C)C)N(Cc2ccc(Cl)cc2Oc2ccc(-c3cnc(CN(C)C)n3C)cc2)C(=O)C[C@@H](Cc2ccccc2)C(=O)N(C)[C@@H](C)CNC(=O)C[C@H](Cc2ccc(Cl)cc2)N(C)C1=O"
  Reading unit: "%"
  Max % inhibition: 98.86
- Molecule: "COC[C@@H]1NC(=O)[C@H](CCS(C)(=O)=O)N(Cc2ccc(Cl)cc2Oc2ccc(-c3cnc(CN(C)C)n3C)cc2)C(=O)C[C@@H](Cc2ccccc2)C(=O)N(C)[C@@H](C)CNC(=O)C[C@H](Cc2ccc(Cl)cc2)N(C)C1=O"
  Reading unit: "%"
  Max % inhibition: 102.01
- Molecule: "COC[C@@H]1NC(=O)[C@H](C)N(Cc2ccc(Cl)cc2Oc2ccc(-c3cnc4n3CCN(C(=O)C3CCNC3)C4)cc2)C(=O)C[C@@H](Cc2ccccc2)C(=O)N(C)[C@@H](C)CNC(=O)C[C@H](Cc2ccc(Cl)cc2)N(C)C1=O.O=C(O)C(F)(F)F (some centres unmarked)"
  Reading unit: "%"
  Max % inhibition: 100.50
- Molecule: "COC[C@@H]1NC(=O)[C@H](C)N(Cc2ccc(Cl)cc2Oc2ccc(-c3cncc(C4CCNCC4)c3)cc2)C(=O)C[C@@H](Cc2ccccc2)C(=O)N(C)[C@@H](C)CNC(=O)C[C@H](Cc2ccc(Cl)cc2)N(C)C1=O"
  Reading unit: "%"
  Max % inhibition: 90.76

Incoming: What measured Max % inhibition goes with COC[C@@H]1NC(=O)[C@@H](C)N(Cc2ccc(C(F)F)cc2Oc2ccc(-c3cnc(CN(C)C)n3C)cc2)C(=O)C[C@@H](Cc2ccccc2)C(=O)N(C)[C@@H](C)CNC(=O)C[C@H](Cc2ccc(Cl)cc2)N(C)C1=O ?
Outgoing: 104.33

Incoming: Thanks! And COC[C@@H]1NC(=O)[C@H](C)N(Cc2ccc(Cl)cc2Oc2ccc(-n3cnc([C@@H](C)N(C)C)c3C)cc2)C(=O)C[C@@H](Cc2ccccc2)C(=O)N(C)[C@@H](C)[C@H](C)NC(=O)C[C@H](Cc2ccc(Cl)cc2)N(C)C1=O ?
Outgoing: 106.63

Incoming: Thanks! And C[C@@H]1C(=O)N[C@@H](CO)C(=O)N(C)[C@@H](Cc2ccc(Cl)cc2)CC(=O)N[C@H]2CCCC[C@@H]2N(C)C(=O)[C@H](Cc2ccccc2)CC(=O)N1Cc1ccc(Cl)cc1Oc1ccc(-c2cnc(CN(C)C)n2C)cc1 ?
Outgoing: 96.92

Incoming: Thanks! And COC[C@@H]1NC(=O)[C@H](C)N(Cc2ccc(Cl)cc2Oc2ccc(-c3cnc(CN4CCCC4)n3C)cc2)C(=O)C[C@@H](Cc2cccc(F)c2F)C(=O)N(C)[C@@H](C)CNC(=O)C[C@H](Cc2ccc(Cl)cc2)N(C)C1=O ?
Outgoing: 96.63

###

molecular target: human PCSK9 (Homo sapiens); assay: PCSK9 ligand binding TR-FRET assay (interference with binding of human PCSK9 to human LDLR); conditions: PCSK9 FRET assay, efficacy (Amax); 100% = 1 uM unlabeled human PCSK9, 0% = DMSO
Sequence (Q8NBP7 153-692): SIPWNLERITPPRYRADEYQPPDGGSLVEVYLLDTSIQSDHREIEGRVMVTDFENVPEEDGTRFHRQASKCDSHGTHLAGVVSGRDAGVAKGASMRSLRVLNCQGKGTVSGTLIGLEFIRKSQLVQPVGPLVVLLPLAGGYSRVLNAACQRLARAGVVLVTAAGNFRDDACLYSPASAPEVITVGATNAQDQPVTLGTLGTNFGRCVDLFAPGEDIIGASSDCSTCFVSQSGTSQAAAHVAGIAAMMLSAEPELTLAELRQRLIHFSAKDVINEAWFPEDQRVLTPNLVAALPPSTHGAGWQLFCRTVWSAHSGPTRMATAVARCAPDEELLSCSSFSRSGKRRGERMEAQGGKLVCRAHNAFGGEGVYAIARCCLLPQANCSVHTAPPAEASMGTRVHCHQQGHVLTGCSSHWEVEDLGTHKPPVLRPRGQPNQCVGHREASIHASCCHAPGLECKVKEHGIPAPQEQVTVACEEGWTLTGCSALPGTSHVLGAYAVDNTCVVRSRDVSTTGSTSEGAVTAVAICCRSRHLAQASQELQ
Sequence (Q8NBP7 31-152 partner limits assumed): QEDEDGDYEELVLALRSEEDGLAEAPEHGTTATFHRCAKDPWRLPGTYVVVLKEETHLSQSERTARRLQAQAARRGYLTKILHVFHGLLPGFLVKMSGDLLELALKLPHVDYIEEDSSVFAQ
Reported Max % inhibition by item:
Provide only the numeric value, understood in %.

// below: answered compounds
- Compound: "COC[C@@H]1NC(=O)[C@H](C)N(Cc2ccc(Cl)cc2Oc2ccc(-c3cnc(C(C)O)n3C)cc2)C(=O)C[C@@H](Cc2ccccc2)C(=O)N(C)[C@H]2CCCC[C@@H]2NC(=O)C[C@H](Cc2ccc(Cl)cc2)N(C)C1=O (stereo partly shown)"
  Reading unit: "%"
  Max % inhibition: 87.34
- Compound: "CC[C@H]1C(=O)N[C@@H](COC)C(=O)N(C)[C@@H](Cc2ccc(Cl)c(F)c2)CC(=O)NC[C@H](C)N(C)C(=O)[C@H](Cc2ccccc2)CC(=O)N1Cc1ccc(Cl)cc1Oc1ccc(-c2cnc(CN(C)C)n2C)cc1"
  Reading unit: "%"
  Max % inhibition: 98.10
- Compound: "COC[C@@H]1NC(=O)[C@H](C)N(Cc2ccc(Cl)cc2Oc2ccc(-c3cnc(CN(C)C)n3C)cc2)C(=O)C[C@@H](C)C(=O)N(C)[C@@H](CC2CC2)CNC(=O)C[C@H](Cc2ccc(Cl)cc2)N(C)C1=O"
  Reading unit: "%"
  Max % inhibition: 83.48
- Compound: "C[C@H]1CNC(=O)C[C@H](Cc2ccc(Cl)cc2)N(C)C(=O)[C@H](CO)NC(=O)[C@H](C)N(Cc2ccccc2Oc2ccc(-c3cnc(CN(C)C)n3C)cc2)C(=O)CCC(=O)N1C"
  Reading unit: "%"
  Max % inhibition: 91.88
- Compound: "COC[C@@H]1NC(=O)[C@H](C)N(Cc2ccc(Cl)cc2Oc2ccc(-c3cnc(CN(C)C)n3C)cc2)C(=O)C[C@@H](Cc2ccccc2C#N)C(=O)N(C)[C@@H](C)[C@H](C)NC(=O)C[C@H](Cc2ccc(Cl)cc2)N(C)C1=O"
  Reading unit: "%"
  Max % inhibition: 104.20
- Compound: "COC[C@@H]1NC(=O)[C@H](C)N(Cc2ccc(Cl)cc2Oc2ccc(-n3cnc(CN4CCCC4)c3C)cc2)C(=O)C[C@@H](Cc2ccccc2)C(=O)N(C)[C@@H](C)CNC(=O)C[C@H](Cc2ccc(Cl)cc2)N(C)C1=O"
  Reading unit: "%"
  Max % inhibition: 108.15
- Compound: "COC[C@@H]1NC(=O)[C@H](C)N(Cc2ccc(Cl)cc2Oc2ccc(-c3cnc4n3CCN(C(C)C)C4)cc2)C(=O)C[C@@H](Cc2ccccc2)C(=O)N(C)[C@@H](C)CNC(=O)C[C@H](Cc2ccc(Cl)cc2)N(C)C1=O.O=C(O)C(F)(F)F"
  Reading unit: "%"
  Max % inhibition: 74.19
- Compound: "COC[C@@H]1NC(=O)[C@H](C)N(Cc2ccc(Cl)cc2Oc2ccc(-c3cnc(CN(C)C)n3C)cc2)C(=O)C[C@@H](Cc2ccccc2)C(=O)N(C)C[C@H](C)NC(=O)C[C@H](Cc2ccc(Cl)cc2)N(C)C1=O"
  Reading unit: "%"
  Max % inhibition: 103.15

Incoming: What measured Max % inhibition goes with COC[C@@H]1NC(=O)[C@H](C)N(Cc2ccc(Cl)cc2Oc2ccc(-c3cnc(OC)nc3)cc2)C(=O)C[C@@H](Cc2ccccc2)C(=O)N(C)[C@@H](C)CNC(=O)C[C@H](Cc2ccc(Cl)cc2)N(C)C1=O ?
Outgoing: 64.09

Incoming: Thanks! And COC[C@@H]1NC(=O)[C@H](CCCN(C)C)N(Cc2ccc(Cl)cc2Oc2ccc(-c3cnc(CN(C)C)n3C)cc2)C(=O)C[C@@H](Cc2ccccc2)C(=O)N(C)[C@H]2CCCC[C@@H]2NC(=O)C[C@H](Cc2ccc(Cl)cc2)N(C)C1=O ?
Outgoing: 102.86

Incoming: Thanks! And COC[C@@H]1NC(=O)C(C)N(Cc2ccc(Cl)cc2Oc2ccc(-c3cnc(CN(C)C)n3C)cc2)C(=O)C[C@@H](Cc2ccccc2)C(=O)N(C)[C@H]2CCCC[C@@H]2NC(=O)C[C@H](Cc2ccc(Cl)cc2)N(C)C1=O (single isomer, unassigned) ?
Outgoing: 103.43

Incoming: Thanks! And COC[C@@H]1NC(=O)[C@H](CCCN2CCCC2)N(Cc2ccc(Cl)cc2Oc2ccc(-c3cnc(CN(C)C)n3C)cc2)C(=O)C[C@@H](Cc2ccccc2)C(=O)N(C)[C@H]2CCCC[C@@H]2NC(=O)C[C@H](Cc2ccc(Cl)cc2)N(C)C1=O ?
Outgoing: 99.24

Incoming: Thanks! And COC[C@@H]1NC(=O)[C@H](C)N(Cc2ccc(Cl)cc2Oc2cccc(C(=O)NC3CCN(C)CC3)c2)C(=O)C[C@@H](Cc2ccccc2)C(=O)N(C)[C@@H](C)CNC(=O)C[C@H](Cc2ccc(Cl)cc2)N(C)C1=O ?
Outgoing: 65.13

Incoming: Thanks! And COC[C@@H]1NC(=O)[C@@H](C)N(Cc2ccc(Cl)cc2Oc2ccc(-c3cnc(CN(C)C)n3C)cc2)C(=O)C[C@@H](Cc2ccccc2)C(=O)N(C)[C@H]2CCOC[C@@H]2NC(=O)C[C@H](Cc2ccc(Cl)cc2)N(C)C1=O ?
Outgoing: 55.44

Incoming: Thanks! And COC[C@@H]1NC(=O)[C@H](C)N(Cc2ccc(Cl)cc2Oc2ccc(-c3cnc(OC)n3C)cc2)C(=O)C[C@@H](Cc2ccccc2)C(=O)N(C)[C@@H](C)CNC(=O)C[C@H](Cc2ccc(Cl)cc2)N(C)C1=O ?
Outgoing: 72.51

Incoming: Thanks! And COC[C@@H]1NC(=O)[C@H](C)N(Cc2ccc(Cl)cc2Oc2ccc(-c3cnc(CN4CCCC4)n3CCF)cc2)C(=O)C[C@@H](Cc2ccccc2)C(=O)N(C)[C@@H](C)CNC(=O)C[C@H](Cc2ccc(Cl)cc2)N(C)C1=O ?
Outgoing: 52.60
